Conditions: in isopropanol, 278.15 K
quantity: solubility (mole fraction)
Enter the number alone.

input: // returns reported solubility (mole fraction) for input COc1cc(/C=C/C(=O)CC(=O)/C=C/c2ccc(O)c(OC)c2)ccc1O
output: 0.00156

###

Conditions: in n-heptane, 303.15 K
quantity: solubility (mole fraction)
Enter the number alone.

input: // returns reported solubility (mole fraction) for input COc1cc(/C=C/C(=O)CC(=O)/C=C/c2ccc(O)c(OC)c2)ccc1O
output: 0.00027

###

Conditions: in n-butanol, 323.15 K
quantity: solubility (mole fraction)
Enter the number alone.

input: // returns reported solubility (mole fraction) for input COc1cc(/C=C/C(=O)CC(=O)/C=C/c2ccc(O)c(OC)c2)ccc1O
output: 0.00175

###

Conditions: in m-xylene, 283.15 K
quantity: solubility (mole fraction)
Enter the number alone.

input: // returns reported solubility (mole fraction) for input COc1cc(/C=C/C(=O)CC(=O)/C=C/c2ccc(O)c(OC)c2)ccc1O
output: 0.00018

###

Settings: in n-hexane, 308.15 K
quantity: solubility (mole fraction)

input: // returns reported solubility (mole fraction) for input COc1cc(/C=C/C(=O)CC(=O)/C=C/c2ccc(O)c(OC)c2)ccc1O
output: 0.00035

###

Settings: in acetone, 288.15 K
quantity: solubility (mole fraction)
Enter the number alone.

input: // returns reported solubility (mole fraction) for input COc1cc(/C=C/C(=O)CC(=O)/C=C/c2ccc(O)c(OC)c2)ccc1O
output: 0.0118

###

Conditions: in DMSO, 278.15 K
quantity: solubility (mole fraction)
Enter the number alone.

input: // returns reported solubility (mole fraction) for input COc1cc(/C=C/C(=O)CC(=O)/C=C/c2ccc(O)c(OC)c2)ccc1O
output: 0.137

###

Settings: in methanol, 288.15 K
quantity: solubility (mole fraction)
Enter the number alone.

input: // returns reported solubility (mole fraction) for input COc1cc(/C=C/C(=O)CC(=O)/C=C/c2ccc(O)c(OC)c2)ccc1O
output: 0.00038

###

Conditions: in m-xylene, 293.15 K
quantity: solubility (mole fraction)

input: // returns reported solubility (mole fraction) for input COc1cc(/C=C/C(=O)CC(=O)/C=C/c2ccc(O)c(OC)c2)ccc1O
output: 0.00026

###

Conditions: in n-butanol, 293.15 K
quantity: solubility (mole fraction)
Enter the number alone.

input: // returns reported solubility (mole fraction) for input COc1cc(/C=C/C(=O)CC(=O)/C=C/c2ccc(O)c(OC)c2)ccc1O
output: 0.00075

###

Settings: in acetonitrile, 298.15 K
quantity: solubility (mole fraction)
Enter the number alone.

input: // returns reported solubility (mole fraction) for input COc1cc(/C=C/C(=O)CC(=O)/C=C/c2ccc(O)c(OC)c2)ccc1O
output: 0.00129

###

Conditions: in methanol, 298.15 K
quantity: solubility (mole fraction)

input: // returns reported solubility (mole fraction) for input COc1cc(/C=C/C(=O)CC(=O)/C=C/c2ccc(O)c(OC)c2)ccc1O
output: 0.0005

###

Details: in n-butanol, 318.15 K
quantity: solubility (mole fraction)
Enter the number alone.

input: // returns reported solubility (mole fraction) for input COc1cc(/C=C/C(=O)CC(=O)/C=C/c2ccc(O)c(OC)c2)ccc1O
output: 0.00151

###

Conditions: in methanol, 283.15 K
quantity: solubility (mole fraction)

input: // returns reported solubility (mole fraction) for input COc1cc(/C=C/C(=O)CC(=O)/C=C/c2ccc(O)c(OC)c2)ccc1O
output: 0.00033

###

Details: in n-hexane, 303.15 K
quantity: solubility (mole fraction)
Enter the number alone.

input: // returns reported solubility (mole fraction) for input COc1cc(/C=C/C(=O)CC(=O)/C=C/c2ccc(O)c(OC)c2)ccc1O
output: 0.00029

###

Conditions: in ethanol, 323.15 K
quantity: solubility (mole fraction)
Enter the number alone.

input: // returns reported solubility (mole fraction) for input COc1cc(/C=C/C(=O)CC(=O)/C=C/c2ccc(O)c(OC)c2)ccc1O
output: 0.00145

###

Conditions: in isopropanol, 323.15 K
quantity: solubility (mole fraction)
Enter the number alone.

input: // returns reported solubility (mole fraction) for input COc1cc(/C=C/C(=O)CC(=O)/C=C/c2ccc(O)c(OC)c2)ccc1O
output: 0.00444

###

Settings: in acetonitrile, 288.15 K
quantity: solubility (mole fraction)
Enter the number alone.

input: // returns reported solubility (mole fraction) for input COc1cc(/C=C/C(=O)CC(=O)/C=C/c2ccc(O)c(OC)c2)ccc1O
output: 0.00097

###

Conditions: in n-butanol, 303.15 K
quantity: solubility (mole fraction)
Enter the number alone.

input: // returns reported solubility (mole fraction) for input COc1cc(/C=C/C(=O)CC(=O)/C=C/c2ccc(O)c(OC)c2)ccc1O
output: 0.00099

###

Settings: in isopropanol, 313.15 K
quantity: solubility (mole fraction)
Enter the number alone.

input: // returns reported solubility (mole fraction) for input COc1cc(/C=C/C(=O)CC(=O)/C=C/c2ccc(O)c(OC)c2)ccc1O
output: 0.00356

###

Details: in m-xylene, 323.15 K
quantity: solubility (mole fraction)
Enter the number alone.

input: // returns reported solubility (mole fraction) for input COc1cc(/C=C/C(=O)CC(=O)/C=C/c2ccc(O)c(OC)c2)ccc1O
output: 0.00066

###

Conditions: in n-hexane, 313.15 K
quantity: solubility (mole fraction)
Enter the number alone.

input: // returns reported solubility (mole fraction) for input COc1cc(/C=C/C(=O)CC(=O)/C=C/c2ccc(O)c(OC)c2)ccc1O
output: 0.00041

###

Conditions: in DMSO, 293.15 K
quantity: solubility (mole fraction)

input: // returns reported solubility (mole fraction) for input COc1cc(/C=C/C(=O)CC(=O)/C=C/c2ccc(O)c(OC)c2)ccc1O
output: 0.211

###

Settings: in ethanol, 303.15 K
quantity: solubility (mole fraction)
Enter the number alone.

input: // returns reported solubility (mole fraction) for input COc1cc(/C=C/C(=O)CC(=O)/C=C/c2ccc(O)c(OC)c2)ccc1O
output: 0.00086

###

Conditions: in m-xylene, 278.15 K
quantity: solubility (mole fraction)
Enter the number alone.

input: // returns reported solubility (mole fraction) for input COc1cc(/C=C/C(=O)CC(=O)/C=C/c2ccc(O)c(OC)c2)ccc1O
output: 0.00015

###

Conditions: in DMSO, 318.15 K
quantity: solubility (mole fraction)
Enter the number alone.

input: // returns reported solubility (mole fraction) for input COc1cc(/C=C/C(=O)CC(=O)/C=C/c2ccc(O)c(OC)c2)ccc1O
output: 0.375

###

Conditions: in n-butanol, 298.15 K
quantity: solubility (mole fraction)
Enter the number alone.

input: // returns reported solubility (mole fraction) for input COc1cc(/C=C/C(=O)CC(=O)/C=C/c2ccc(O)c(OC)c2)ccc1O
output: 0.00086

###

Details: in m-xylene, 303.15 K
quantity: solubility (mole fraction)

input: // returns reported solubility (mole fraction) for input COc1cc(/C=C/C(=O)CC(=O)/C=C/c2ccc(O)c(OC)c2)ccc1O
output: 0.00036

###

Settings: in acetonitrile, 308.15 K
quantity: solubility (mole fraction)
Enter the number alone.

input: // returns reported solubility (mole fraction) for input COc1cc(/C=C/C(=O)CC(=O)/C=C/c2ccc(O)c(OC)c2)ccc1O
output: 0.00169

###

Conditions: in n-heptane, 308.15 K
quantity: solubility (mole fraction)
Enter the number alone.

input: // returns reported solubility (mole fraction) for input COc1cc(/C=C/C(=O)CC(=O)/C=C/c2ccc(O)c(OC)c2)ccc1O
output: 0.00032

###

Conditions: in acetone, 298.15 K
quantity: solubility (mole fraction)
Enter the number alone.

input: // returns reported solubility (mole fraction) for input COc1cc(/C=C/C(=O)CC(=O)/C=C/c2ccc(O)c(OC)c2)ccc1O
output: 0.0162

###

Conditions: in ethyl acetate, 303.15 K
quantity: solubility (mole fraction)
Enter the number alone.

input: // returns reported solubility (mole fraction) for input COc1cc(/C=C/C(=O)CC(=O)/C=C/c2ccc(O)c(OC)c2)ccc1O
output: 0.00319

###

Conditions: in acetone, 323.15 K
quantity: solubility (mole fraction)
Enter the number alone.

input: // returns reported solubility (mole fraction) for input COc1cc(/C=C/C(=O)CC(=O)/C=C/c2ccc(O)c(OC)c2)ccc1O
output: 0.0345

###

Conditions: in n-heptane, 288.15 K
quantity: solubility (mole fraction)
Enter the number alone.

input: // returns reported solubility (mole fraction) for input COc1cc(/C=C/C(=O)CC(=O)/C=C/c2ccc(O)c(OC)c2)ccc1O
output: 0.00013

###

Conditions: in acetone, 278.15 K
quantity: solubility (mole fraction)
Enter the number alone.

input: // returns reported solubility (mole fraction) for input COc1cc(/C=C/C(=O)CC(=O)/C=C/c2ccc(O)c(OC)c2)ccc1O
output: 0.00834

###

Conditions: in ethyl acetate, 283.15 K
quantity: solubility (mole fraction)
Enter the number alone.

input: // returns reported solubility (mole fraction) for input COc1cc(/C=C/C(=O)CC(=O)/C=C/c2ccc(O)c(OC)c2)ccc1O
output: 0.00199
